Tested on: EKVX NSCLC
Measurement Notes: NCI-60 one-dose screen, 48 h
Assay Conditions: 10 µM unless noted
Method: Growth inhibition of the EKVX human Non-Small Cell Lung tumor cell line is measured as a screen for anti-cancer activity. Cells are grown in 96 well plates and exposed to the test compound for 48 hours. Compounds are tested at a single concentration, which is 10^-5 M for most compounds. The reported endpoint is percent growth (GI% or GIPRCNT), where numbers from 0 - 100% represent growth inhibition, and numbers from -100% - 0 represent cell death. […]
This is part of a sample that, as a whole, favours compounds with a hit. Of some 83,000 tested, about 20% had one in any assay. Active and inactive are the calls of the source. Rule for the calls: active = growth percent below 10; inactive = the rest.
Outcome field: choose from 1 (active), 0 (inactive)

Study these solved cases before continuing.
Smiles Repr	Measured On	Class Assignment
COc1cc2cc(Oc3ccc(NC(=O)Nc4cc(C(F)(F)F)cc(C(F)(F)F)c4)cc3)c(C)nc2cc1OCCN1CCCCC1	EKVX NSCLC	1
Cc1cc(-c2ccc(N(C)C)cc2)c2sc(=O)[nH]c2n1	EKVX NSCLC	0
CCCCCCCC/C=C\CCCCCCCC(=O)Oc1cccc2cccnc12	EKVX NSCLC	0

// next entry
Lab log entry: O=C(C[C@@]1(O)C(=O)Nc2c(Cl)ccc(Cl)c21)c1ccc(C2CC2)cc1 — outcome as called in the assay?
0

###

Test system: SF-295 CNS
Measurement Notes: NCI-60 one-dose screen, 48 h (100 = growth as untreated, 0 = no growth, -100 = all killed)
Assay Conditions: 10 µM unless noted
Compounds without any hit were thinned out: in the full panel of roughly 83,000, 20% have a hit. Activity calls are given as the source filed them. How the source made its calls: active means growth percent below 10; inactive means the rest.
Property Name: growth

Molecule	growth
C=C(C=O)C1CCC2(C(=O)O)CCC3(C)C(CCC4C5(C)CCC(O)C(C)(C)C5CCC43C)C12 (stereo not drawn)	-6.97% (active)
CCN(CC)CC(O)CNc1c2ccc(Cl)cc2nc2ccc(OC)cc12 (stereo not drawn)	10.8% (inactive)
O=c1ccn(C2OC(F)(CO)C(O)C2F)c(=O)[nH]1 (stereo not drawn)	98.3% (inactive)
CCCCCCCCn1cc(C2=C(c3coc4ccc(OC)cc34)C(=O)NC2=O)c2ccccc21	97.2% (inactive)
O=S(=O)(NCCNc1cc(-c2c(-c3cccc(O)c3)nc3sccn23)ccn1)c1ccc(Br)cc1	69% (inactive)
OCCCCc1nccc2c1[nH]c1ccccc12	102% (inactive)

Provide each entry's growth from the list below.
1. Cc1cc(C)on1
2. COc1cc(-c2ccc(-c3ccc(C(=N)N)nc3)s2)cc(OC)c1OC

1. 115% (inactive)
2. 40.1% (inactive)

###

Tested on: HCT-15 colon
Measurement Notes: NCI-60 one-dose screen, 48 h
Assay Conditions: 10 µM unless noted
Compounds without any hit were thinned out: in the full panel of roughly 83,000, 20% have a hit. Activity calls are given as the source filed them. Rule for the calls: active = growth percent below 10; inactive = the rest.
Outcome field: choose from 1 = active, 0 = inactive

Smiles Repr	Class Assignment
CNC(=O)c1cc(Oc2ccc3nc(NC(=O)Nc4cc(C(F)(F)F)cc(C(F)(F)F)c4)sc3c2)ccn1	1
Clc1ccc(-c2cn(-c3ccccc3)c(-c3ccccc3)n2)cc1	0
O=C1Nc2ccc(Cl)cc2/C1=N/N=C/c1c[nH]c2ccccc12	0

// next entry
Lab log entry: COc1ccc(-c2nc3sccn3c2/C=C/C(=O)c2c[nH]c3ccccc23)cc1 — outcome as called in the assay?
0

src = PubChem BioAssay (NCI)
